- system: phosphatidylinositol-specific phospholipase C (PLC)
- testSummary: Inhibition of phosphatidylinositol-specific phospholipase C enzymatic activity (hydrolysis of [3H]phosphatidylinositol)
- measurementSetup: soluble fraction of human platelets; 20 min preincubation, 15 min reaction, pH 6.5, 37° C.; read-out: IC50 (Inhibitor concentration inhibiting 50% of the enzyme)
pIC50: −log10 of the molar value.

molecule	pIC50
CCCCCCCCCCCCSP(=O)(O)O[C@@H]1[C@H](O)[C@H](O)[C@@H](O)[C@H](O)[C@H]1O (relative stereo) [Example 4.3, 1-O-(DODECYLPHOSPHOTHIOLYL)-MYO-INOSITOL]	< 4.00
CCCCCCCCCCCCCCSP(=O)(O)O[C@@H]1[C@H](O)[C@H](O)[C@@H](O)[C@H](O)[C@H]1O (relative stereo) [Example 3.3]	~4.00
CCCCCCCCSP(=O)(O)O[C@@H]1[C@H](O)[C@H](O)[C@@H](O)[C@H](O)[C@H]1O (relative stereo) [Example 5.3, 1-O-(OCTYLPHOSPHOTHIOLYL)-MYO-INOSITOL]	< 4.00
